Test system: PDH-E1alpha (pSer300) in HEK293T cells
Experiment: Cellular immunofluorescence assay, PDH-E1alpha (pSer300) in HEK293T cells
Format: cell-based, human
Details: 5 hours incubation, anti-PDH-E1alpha (pSer300) immunofluorescence, read-out: IC50 (cell data)
Description: Cellular Assay for Determination of Compound Activities Compound activities were determined in a cellular immunofluorescence assay. Human HEK293T cells were seeded into black 384-well plates with clear bottom and grown overnight. Next day, test compounds were added to the wells and the plates incubated for 5 hours. […] Finally, cells were washed and the plates were measured on the laser scanning cytometer acumen hci (TTpLabtech). […]
MEASURED PROPERTY: IC50

In plain terms, C[C@@](O)(C(=O)N1CCc2ncn(-c3ccccc3)c2C1)C(F)(F)F [Compound A43] has a documented IC50 of 300 to 3000 nM
